Origin of values: paper PMC11344278

# Tested on: RTEL1 HHD1-2 (Homo sapiens)
# Sequence: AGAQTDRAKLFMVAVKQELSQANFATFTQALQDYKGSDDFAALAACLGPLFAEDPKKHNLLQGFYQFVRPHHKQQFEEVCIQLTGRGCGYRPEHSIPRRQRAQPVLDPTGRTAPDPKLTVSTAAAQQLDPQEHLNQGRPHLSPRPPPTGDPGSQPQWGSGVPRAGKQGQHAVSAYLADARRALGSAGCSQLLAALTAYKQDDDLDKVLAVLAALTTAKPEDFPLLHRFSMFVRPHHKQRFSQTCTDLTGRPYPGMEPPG
# Run description: fluorescence anisotropy
# Condition summary: 0.5 mM Mg2+; 20 mM Tris pH 7.5, 50 mM KCl, 0.5 mM MgCl2, 10% glycerol, 0.1% Igepal, 10 nM substrate; EMSA at room temperature 15 min (0-160 nM protein), FA at 25 C …
Value type: Kd
Note to self: number, then unit, no commentary.

Residue string: CUACCCCCACCCUCACAACCUUUUUUUUUUUUUUU [ssRNA]
Kd: 192 nM

Residue string: CTACTACCCCCACCCTCACAACCTTTTTTTTTTTTTTT / TTTTTTTTTTTTTTTGGTTGTGAGGGTGGGGGTAGTAG [DNA fork (D1L:D3L)]
Kd: 155 nM

Now for a further sequence.
Q: Quote Kd reported for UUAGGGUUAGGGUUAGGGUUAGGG [TERRA G4] please.
Ans: 38 nM

----------
# Tested on: RTEL1 HHD1-2 (Homo sapiens)
# Sequence: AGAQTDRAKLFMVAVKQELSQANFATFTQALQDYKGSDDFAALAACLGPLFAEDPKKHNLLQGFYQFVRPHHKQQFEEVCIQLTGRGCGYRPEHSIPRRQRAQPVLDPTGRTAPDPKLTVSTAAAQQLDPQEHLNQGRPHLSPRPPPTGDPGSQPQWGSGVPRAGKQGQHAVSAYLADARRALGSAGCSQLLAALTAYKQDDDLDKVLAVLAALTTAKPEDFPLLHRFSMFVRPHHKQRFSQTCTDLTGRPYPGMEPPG
# Run description: fluorescence anisotropy
# Condition summary: 0.5 mM Mg2+; 20 mM Tris pH 7.5, 50 mM KCl, 0.5 mM MgCl2, 10% glycerol, 0.1% Igepal, 10 nM substrate; EMSA at room temperature 15 min (0-160 nM protein), FA at 25 C …
Overview of reported pKd across a group of sequences:
Friendly reminder that pKd comes from taking -log10 of the concentration in mol/L.

Please review the following examples before continuing.
Residue string: GTACCCGGGGATCCTCTAGAGTCGACCTGCAGGCATGCAAGCTTGGCACTGGCCGTCGTTTTACAAC / GTTGTAAAACGACGGCCAGTGCCTTTTCCCAGCCTCAATCTCATCACTCTAGAGGATCCCCGGGTAC / GCUUGCAUGCCUGCAGGCCAGCCUCAAUCUCAUCUUUUU [R-loop (R4:D9:D11)]
Tested on: RTEL1 HHD1-2 (Homo sapiens)
pKd: 6.80
//
Residue string: CTACTACCCCCACCCTCACAACCTTTTTTTTTTTTTTT [ssDNA]
Tested on: RTEL1 HHD1-2 (Homo sapiens)
pKd: 6.61
//
Residue string: CUACCCCCACCCUCACAACCUUUUUUUUUUUUUUU / UUUUUUUUUUUUUUUGGUUGUGAGGGUGGGGGUA [RNA fork (R1L:R3L)]
Tested on: RTEL1 HHD1-2 (Homo sapiens)
pKd: 6.56

Now for a further sequence.
Q: Jot down pKd (RTEL1 HHD1-2 (Homo sapiens)) of GTACCCGGGGATCCTCTAGAGTCGACCTGCAGGCATGCAAGCTTGGCACTGGCCGTCGTTTTACAAC / GTTGTAAAACGACGGCCAGTGCCTTTTCCCAGCCTCAATCTCATCACTCTAGAGGATCCCCGGGTAC / GCTTGCATGCCTGCAGGCCAGCCTCAATCTCATC [D-loop (D4:D9:D11)] .
Ans: 6.49
